Parameter: pEC50. Scope: all listed entries.
# System: EpiSC-derived OPCs
# Method summary: In vitro phenotypic screening of OPCs, MBP high-content imaging
# Type: cell-based, mouse
# Cond: Mus musculus, 72 h, percentage of MBP+ oligodendrocytes; 3 days; 0.5 nM to 1000 nM; read-out: mOPC EC50
pEC50: −log10 of the molar value.

>  <Compound>
O=S1(=O)CC2(CCN(CCOc3ccc(OC(F)(F)F)cc3)CC2)C1 [Compound 218]

>  <pEC50>
8.60

$$$$
>  <Compound>
CC(C)(CN1CCC2(CC1)CS(=O)(=O)C2)Oc1ccc(Cl)c(F)c1 [Compound 231]

>  <pEC50>
9.05

$$$$
>  <Compound>
CC(Cc1ccc(C2CC2(C)C)cc1)CN1CCC2(C1)CS(=O)(=O)C2 (racemic) [Compound 102]

>  <pEC50>
7.70

$$$$
>  <Compound>
O=S1(=O)CC2(CCN(CC[C@@H](F)c3ccc(C(F)(F)F)nc3)CC2)C1 (single isomer, unassigned) [237B*]

>  <pEC50>
7.16

$$$$
>  <Compound>
CC(C)(Cc1ccc(C2CCC(F)(F)CC2)c(Cl)c1)CN1CCC2(C1)CS(=O)(=O)C2 [Example 139]

>  <pEC50>
9.34

$$$$
>  <Compound>
CC(Cc1ccc(C2CC2)cc1)CN1CCC2(C1)CS(=O)(=O)C2 (racemic) [Compound 108]

>  <pEC50>
8.12

$$$$
>  <Compound>
CC(C)(Cc1ccc(C(F)(F)F)nc1)CN1CCC2(CC1)CS(=O)(=O)C2 [Example 152]

>  <pEC50>
7.96

$$$$
>  <Compound>
O=S1(=O)CC2(CCN(CCOc3ccc(C(F)(F)F)cc3)CC2)C1 [Compound 226]

>  <pEC50>
8.66

$$$$
>  <Compound>
CC(C)n1nc(C(F)(F)F)cc1C[C@H](C)CN1CCC2(C1)CS(=O)(=O)C2 (single isomer, unassigned) [235B*]

>  <pEC50>
8.41

$$$$
>  <Compound>
O=S1(=O)CC2(CCN(CCOc3cnc([C@H]4CCC[C@H](C(F)(F)F)C4)nc3)CC2)C1 (relative stereo) [Compound 248A]

>  <pEC50>
7.02

$$$$
>  <Compound>
O=S1(=O)CC2(CCN(CCOc3ccnc(C(F)(F)F)c3)CC2)C1 [Compound 236]

>  <pEC50>
8.41

$$$$
>  <Compound>
O=S1(=O)CC2(CCN(CCOc3ccc(C(F)(F)F)c(F)c3)CC2)C1 [Compound 228]

>  <pEC50>
8.55

$$$$
>  <Compound>
O=S1(=O)CC2(CCN(CCOc3cnc([C@H]4CC[C@H](C(F)(F)F)CC4)c(F)c3)CC2)C1 [Compound 249]

>  <pEC50>
7.13

$$$$
>  <Compound>
CC(C)n1nc(C(F)(F)F)cc1OCCN1CCC2(CC1)CS(=O)(=O)C2 [Compound 239]

>  <pEC50>
6.43

$$$$
>  <Compound>
C[C@@H](Cc1ccc(C2CCC(F)(F)CC2)c(Cl)c1)CN1CCC2(C1)CS(=O)(=O)C2 (single isomer, unassigned) [117A*]

>  <pEC50>
8.82

$$$$
>  <Compound>
CC(C)(CN1CCC2(CC1)CS(=O)(=O)C2)Oc1ccc(C(F)(F)F)c(F)c1 [Example 208]

>  <pEC50>
8.82

$$$$

* * *

# Measured target: human EBP (Homo sapiens (Human), UniProt Q15125)
# Sequence (Q15125 whole entry): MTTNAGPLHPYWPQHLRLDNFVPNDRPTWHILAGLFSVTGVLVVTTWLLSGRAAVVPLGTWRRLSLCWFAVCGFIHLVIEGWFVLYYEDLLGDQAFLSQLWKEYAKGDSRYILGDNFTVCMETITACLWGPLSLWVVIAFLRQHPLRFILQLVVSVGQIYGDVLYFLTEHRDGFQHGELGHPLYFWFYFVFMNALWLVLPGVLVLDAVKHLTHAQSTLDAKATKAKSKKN
# Method summary: Competition binding assay (SPA) to determine compound affinity to EBP
# Cond: read-out: hEBP SPA Ki
Readout type: Ki (nM)

>  <Molecule>
C[C@@H](CN1CCC2(CC1)CS(=O)(=O)C2)Oc1ccc(F)c(F)c1 (single isomer, unassigned) [221A*]

>  <Readout type>
Ki

>  <Unit text>
nM

>  <Measured result>
10

$$$$

* * *

# Test system: EpiSC-derived OPCs
# Method summary: In vitro phenotypic screening of OPCs, MBP high-content imaging
# Format: cell-based, mouse
# Cond: Mus musculus, 72 h, percentage of MBP+ oligodendrocytes; 3 days; 0.5 nM to 1000 nM; read-out: mOPC EC50
# Experimental: To assess effects of treatments on OPCs, all treatments were assayed in two or more independent platings of epiblast stem cell-derived OPCs (EpiSC). […] Cells and cell culture plates were imaged on the Operetta High Content Imaging and Analysis system (PerkinElmer). […] The peri-nuclear region of each cell was then cross-referenced with the mature myelin protein (MBP) stain to identify oligodendrocyte nuclei, and from this the percentage of oligodendrocytes was calculated. […]
pEC50: −log10 of the molar value.
The label depends only on pEC50: label 1 if it is at least 8, label 0 if it is smaller.

>  <Compound>
C[C@@H](Cc1cnc(C(F)(F)F)nc1)CN1CCC2(CC1)CS(=O)(=O)C2 (single isomer, unassigned) [215A*]

>  <Qualitative label>
label 0

$$$$
>  <Compound>
CC(C)(Cc1ccc(C(F)(F)F)nc1)CN1CC[C@@]2(CCS(=O)(=O)C2)C1 (single isomer, unassigned) [Compound 148B]

>  <Qualitative label>
label 0

$$$$
>  <Compound>
O=S1(=O)CC2(CCN(CC[C@H](F)c3ccc(C(F)(F)F)cc3)C2)C1 (single isomer, unassigned) [Compound 122B]

>  <Qualitative label>
label 1

$$$$
>  <Compound>
CC(C)(Cc1ccc(C(F)(F)F)nc1)CN1CC[C@]2(CCS(=O)(=O)C2)C1 (single isomer, unassigned) [Compound 148A]

>  <Qualitative label>
label 0

$$$$
>  <Compound>
O=S1(=O)CCC2(CC1)CN(CCOc1ccc(F)c(Cl)c1)C2 [Compound 219]

>  <Qualitative label>
label 0

$$$$

* * *

# Measured target: human EBP (Homo sapiens (Human), UniProt Q15125)
# Method summary: Competition binding assay (SPA) to determine compound affinity to EBP
# Cond: radioligand [3H]-Ifenprodil 10 nM; Ki=IC50/(1+[L]/Kd); HEK293 membrane; read-out: hEBP SPA Ki
# Ki listing for each entry below
Readout type: Ki

>  <Compound>
CC(C)(CN1CCC2(C1)CS(=O)(=O)C2)Oc1cnc(C(F)(F)F)nc1 [Example 144]

>  <Measured result>
53 nM

$$$$
>  <Compound>
O=S1(=O)CC2(CCN(CC(F)Cc3ccc(C(F)(F)F)cc3)C2)C1 (racemic) [Example 142]

>  <Measured result>
35 nM

$$$$
>  <Compound>
CC(C)(CN1CCC2(C1)CS(=O)(=O)C2)Oc1ccc(C(F)(F)F)nc1 [Example 135]

>  <Measured result>
29 nM

$$$$
>  <Compound>
CC(C)(CN1CCC2(C1)CS(=O)(=O)C2)Oc1ccc(C2CCC2)cc1 [Example 129]

>  <Measured result>
21 nM

$$$$

* * *

# System: EpiSC-derived OPCs
# Method summary: In vitro phenotypic screening of OPCs, MBP high-content imaging
# Type: cell-based, mouse
# Cond: Mus musculus, 72 h, percentage of MBP+ oligodendrocytes; 3 days; 0.5 nM to 1000 nM; read-out: mOPC EC50

>  <Compound>
C[C@H](Cc1ccc(C(F)(F)F)cn1)CN1CCC2(C1)CS(=O)(=O)C2 (single isomer, unassigned) [121B*]

>  <EC50 (nM)>
260

$$$$
>  <Compound>
O=S1(=O)CC2(CCN(CCOc3ccc(C(F)(F)F)nc3)CC2)C1

>  <EC50 (nM)>
22

$$$$
>  <Compound>
CC(C)(Cc1ccc(C(F)(F)F)cc1)CN1CCC2(C1)CS(=O)(=O)C2

>  <EC50 (nM)>
0.72

$$$$
>  <Compound>
CC(C)(CN1CC2(CCS(=O)(=O)CC2)C1)Oc1ccc(C(F)(F)F)cc1

>  <EC50 (nM)>
45

$$$$
>  <Compound>
O=S1(=O)CC2(CCN(CCCc3ccc(OC(F)(F)F)cc3)CC2)C1

>  <EC50 (nM)>
4.7

$$$$
>  <Compound>
C[C@@H](Cc1ccc(C2CCC2)cc1)CN1CCC2(C1)CS(=O)(=O)C2 (single isomer, unassigned) [109C*]

>  <EC50 (nM)>
3

$$$$

* * *

# Measured target: human EBP (Homo sapiens (Human), UniProt Q15125)
# Method summary: Competition binding assay (SPA) to determine compound affinity to EBP
# Cond: radioligand [3H]-Ifenprodil 10 nM; Ki=IC50/(1+[L]/Kd); HEK293 membrane; read-out: hEBP SPA Ki
pKi: −log10 of the molar value.
Listing of recorded pKi by entry.

>  <Molecule>
C[C@@H](Cc1ccnc(C(F)(F)F)c1)CN1CCC2(C1)CS(=O)(=O)C2 (single isomer, unassigned) [Compound 126A]

>  <pKi>
7.52

$$$$
>  <Molecule>
C[C@H](Cc1ccc(C(F)F)cc1)CN1CCC2(C1)CS(=O)(=O)C2 (single isomer, unassigned) [Compound 128B]

>  <pKi>
7.35

$$$$
>  <Molecule>
C[C@@H](Cc1ccc(C(F)F)cc1)CN1CCC2(C1)CS(=O)(=O)C2 (single isomer, unassigned) [Compound 128A]

>  <pKi>
7.25

$$$$
>  <Molecule>
COC(Cc1ccc(C(F)(F)F)cc1)CN1CCC2(C1)CS(=O)(=O)C2 (racemic) [Example 143]

>  <pKi>
7.57

$$$$
>  <Molecule>
C[C@H](Cc1cnn(CC(F)(F)F)c1)CN1CCC2(C1)CS(=O)(=O)C2 (single isomer, unassigned) [Compound 154B]

>  <pKi>
7.28

$$$$
>  <Molecule>
C[C@@H](Cc1cnc(C(F)(F)F)nc1)CN1CCC2(CC1)CS(=O)(=O)C2 (single isomer, unassigned) [215A*]

>  <pKi>
7.68

$$$$
>  <Molecule>
CC(C)(CN1CCC2(C1)CS(=O)(=O)C2)Oc1ccc(F)cc1 [Example 132]

>  <pKi>
7.59

$$$$
>  <Molecule>
C[C@@H](Cc1ccc(C(F)(F)F)cc1)CN1CCC2(C1)CS(=O)(=O)C2 (single isomer, unassigned) [114A*]

>  <pKi>
7.46

$$$$
>  <Molecule>
CC(Cc1ccc(C2CCC2)cc1)CN1CCC2(C1)CS(=O)(=O)C2 (racemic) [Compound 109A]

>  <pKi>
7.49

$$$$
>  <Molecule>
C[C@@H](Cc1ccc(C(F)(F)F)nc1)CN1CCC2(C1)CS(=O)(=O)C2 (single isomer, unassigned) [118A*]

>  <pKi>
7.59

$$$$
>  <Molecule>
CC(C)(Cc1ccc(C(F)(F)F)nc1)CN1CC[C@@]2(CCS(=O)(=O)C2)C1 (single isomer, unassigned) [Compound 148B]

>  <pKi>
7.49

$$$$
>  <Molecule>
C[C@H](Cc1cnc(C(F)(F)F)nc1)CN1CCC2(C1)CS(=O)(=O)C2 (single isomer, unassigned) [Compound 145B]

>  <pKi>
7.00

$$$$
>  <Molecule>
O=S1(=O)CC2(CCN(CCOc3ccc(C(F)(F)F)cc3)C2)C1 [Compound 112]

>  <pKi>
7.55

$$$$
>  <Molecule>
C[C@@H](Cc1cnc(C(F)(F)F)nc1)CN1CCC2(C1)CS(=O)(=O)C2 (single isomer, unassigned) [Compound 145A]

>  <pKi>
7.25

$$$$
>  <Molecule>
O=S1(=O)CC2(CCN(CC3(Cc4ccc(C(F)(F)F)nc4)CC3)C2)C1 [Example 157]

>  <pKi>
7.60

$$$$
>  <Molecule>
C[C@H](Cc1ccnc(C(F)(F)F)c1)CN1CCC2(C1)CS(=O)(=O)C2 (single isomer, unassigned) [Compound 126B]

>  <pKi>
6.92

$$$$
>  <Molecule>
CC(C)(Cc1ccc(C(F)(F)F)nc1)CN1CCC2(C1)CS(=O)(=O)C2 [Example 140]

>  <pKi>
7.74

$$$$
>  <Molecule>
CC(C)(CN1CCC2(C1)CS(=O)(=O)C2)Oc1ccc(OC(F)(F)F)cc1 [Example 136]

>  <pKi>
7.54

$$$$
